Test: BET inhibitor-based combinations targeting novel dependencies in MECOM-rearranged (r) AML: HNT-34 cell line (AID 2202234); note: nearly all actives have a fitted effect of over 35% in size
Settings: HNT-34 AML viability, CellTiter-Glo luminescence, 48 h; series mostly up to 46 µM
Experimental: Ecotropic viral insertion site 1 (EVI1) is located on chromosome 3q26.2 as part of the MECOM (MDS and EVI1 complex) locus. […] A collection of 2480 mechanistically annotated dugs (MIPE v5.0) was used to screen four 3q26.2 rearranged AML cell lines and three non-3q26.2 rearranged AML cell lines. […] Cell viability was determined by luminescence based, Cell Titer Glo assay (Promega). […] Luminescence readings were taken using a Viewlux (PerkinElmer) with a 2 s exposure time per plate. […]
Inconclusive results are not listed. Calls of active or inactive are those of the source. Calls come from the whole dose curve; as a rule, active = well fitted inhibition curve with a large enough effect; inconclusive = small, poorly fitted or top-dose-only effect; inactive = no such curve, though single readings can be large or run the other way.
In this exercise, the only acceptable responses are active, inactive

Example cases with answers are listed next.
compound: CC(C)(O)/C=C\C(=O)[C@](C)(O)[C@H]1[C@H](O)C[C@]2(C)[C@@H]3CC=C4[C@@H](C=C(O)C(=O)C4(C)C)[C@]3(C)C(=O)C[C@@]12C
assigned.label: active

compound: CC(C)C[C@H](CN)CC(=O)O
assigned.label: inactive

compound: C[C@@H](C1CC[C@@]2(O)C3=CC(=O)[C@@H]4C[C@@H](O)[C@@H](O)C[C@]4(C)[C@H]3CC[C@]12C)[C@H](O)CCC(C)(C)O (some centres undefined)
assigned.label: inactive

compound: C/C(O)=C(\C#N)C(=O)Nc1cc(Br)ccc1Br
assigned.label: inactive

compound: CC(C)(NC(=O)O[C@@H]1CN2CCC1CC2)c1csc(-c2ccc(F)cc2)n1
assigned.label: active

compound: Cc1ccccc1-n1c(Cn2ncc3c(N)ncnc32)nc2cccc(C)c2c1=O
assigned.label: inactive

compound: CSCC[C@@H](NC(=O)[C@@H](Cc1ccccc1)NC(=O)CNC(=O)CNC(=O)[C@@H](N)Cc1ccc(O)cc1)C(=O)O
assigned.label: inactive

compound: O=C(O)c1nn(Cc2ccc(Cl)cc2Cl)c2ccccc12
assigned.label: inactive

Switching to the query record.
Query: I'd appreciate the recorded outcome for COc1cc(C)[nH]c(=O)c1CNC(=O)c1c(C)n([C@H](C)C2CCOCC2)c2ccccc12 from this test.
Result: inactive

###

assay: BET inhibitor-based combinations targeting novel dependencies in MECOM-rearranged (r) AML: SET-2 cell line (AID 2202231); conditions: SET-2 AML cells viability, CellTiter-Glo luminescence, 48 h; active compounds read low, concentration not given here;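 note: plate controls were DMSO treated cells for no effect and wells without cells for full effect; nearly all actives have a fitted effect of over 35% in size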
Inconclusive results are not listed.
quantity.name: viability (%)
Just the number in %, nothing appended.

The following compounds have reported results that may help.
compound: C[C@]12CC[C@H]3[C@@H](CCC4=CC(=O)CC[C@@]43C)[C@H]1CC[C@H]2OC(=O)CCC1CCCC1
numeric.result: 96.4

compound: C[C@H]1[C@H](O)[C@@H](C)/C=C/C=C/CC/C=C/C=C/C=C/C=C/[C@H](O[C@@H]2O[C@H](C)[C@@H](O)[C@H](N)[C@@H]2O)C[C@@H]2O[C@](O)(C[C@@H](O)[C@H](O)CC[C@@H](O)C[C@@H](O)C[C@@H](O)CC(=O)O[C@H]1C)C[C@H](O)[C@H]2C(=O)O
numeric.result: 99

compound: CCCC[N+]1(C)[C@H]2CC(OC(=O)[C@H](CO)c3ccccc3)C[C@H]1[C@H]1O[C@H]12 (stereo partly specified)
numeric.result: 109

compound: C#CCN(C)[C@H](C)Cc1ccccc1
numeric.result: 96.9

compound: C/C(O)=C(\C#N)C(=O)Nc1cc(Br)ccc1Br
numeric.result: 90

Proceeding to the next compound to report its viability.
Query: Respond only with viability recorded for NC(=O)[C@@H](CC1CC1)[C@@H](CCC(F)(F)F)C(=O)N[C@H]1N=C(c2ccccc2)c2cccc(F)c2NC1=O
Result: 117
